Numbers sourced from the supplement of paper PMC7877785.

- PROCEDURE TEXT: self-splicing fitness, log relative to wild type (ln ratio); higher = more splicing; Tetrahymena group I intron in knt gene, E. coli kanamycin selection, DiMSum; sequences stand for … in CUCUCU…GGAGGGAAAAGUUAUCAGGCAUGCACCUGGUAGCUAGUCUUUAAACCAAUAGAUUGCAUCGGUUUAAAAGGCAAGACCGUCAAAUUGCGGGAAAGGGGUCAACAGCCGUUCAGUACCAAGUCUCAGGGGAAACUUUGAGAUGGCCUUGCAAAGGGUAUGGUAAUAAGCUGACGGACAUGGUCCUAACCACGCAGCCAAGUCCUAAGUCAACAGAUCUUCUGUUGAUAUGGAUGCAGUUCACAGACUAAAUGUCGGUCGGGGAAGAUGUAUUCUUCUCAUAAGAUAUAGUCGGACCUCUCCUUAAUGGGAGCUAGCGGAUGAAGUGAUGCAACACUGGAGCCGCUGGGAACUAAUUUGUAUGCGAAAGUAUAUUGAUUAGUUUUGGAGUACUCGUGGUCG;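 further: selection with 25 µg/mL kanamycin versus none on LB agar overnight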
- RUN CONDITIONS: 30 °C
ENDPOINT LABEL: self-splicing fitness (ln)

{"QUERY SEQUENCE": "AGCCAGCAAUAUUACGUAGC", "EXPERIMENTAL VALUE": -3.01}
{"QUERY SEQUENCE": "ACUUAGCAAUAUUACGCCGA", "EXPERIMENTAL VALUE": -2.94}
{"QUERY SEQUENCE": "AUCAAGCAAUAUUACGCCAG", "EXPERIMENTAL VALUE": -3.08}
{"QUERY SEQUENCE": "CCUAAGCAAUAUUACGAAUG", "EXPERIMENTAL VALUE": -1.63}
{"QUERY SEQUENCE": "ACGUAGCAAUAUUACGCAUA", "EXPERIMENTAL VALUE": -1.82}
{"QUERY SEQUENCE": "CUGAAGCAAUAUUACGCGGG", "EXPERIMENTAL VALUE": -1.65}
{"QUERY SEQUENCE": "AAGAAGCAAUAUUACGUGCC", "EXPERIMENTAL VALUE": -1.01}
{"QUERY SEQUENCE": "UAGCAGCAAUAUUACGCAAC", "EXPERIMENTAL VALUE": -2.32}
{"QUERY SEQUENCE": "AGGUAGCAAUAUUACGUUGC", "EXPERIMENTAL VALUE": -3.87}
{"QUERY SEQUENCE": "ACGUAGCAAUAUUACGCCAG", "EXPERIMENTAL VALUE": -1.59}
{"QUERY SEQUENCE": "GAUCAGCAAUAUUACGAGCG", "EXPERIMENTAL VALUE": -1.37}
{"QUERY SEQUENCE": "CCACAGCAAUAUUACGCCCU", "EXPERIMENTAL VALUE": -2.75}
{"QUERY SEQUENCE": "GGCUAGCAAUAUUACGGCGG", "EXPERIMENTAL VALUE": -1.32}
{"QUERY SEQUENCE": "CUAAAGCAAUAUUACGUAAU", "EXPERIMENTAL VALUE": -4.33}
{"QUERY SEQUENCE": "UGCGAGCAAUAUUACGUUGA", "EXPERIMENTAL VALUE": -3.05}
{"QUERY SEQUENCE": "GAUGAGCAAUAUUACGCCUC", "EXPERIMENTAL VALUE": -2.56}
{"QUERY SEQUENCE": "GUCAAGCAAUAUUACGAUGA", "EXPERIMENTAL VALUE": -2.41}
{"QUERY SEQUENCE": "CACCAGCAAUAUUACGACGU", "EXPERIMENTAL VALUE": -2.58}
{"QUERY SEQUENCE": "AAUGAGCAAUAUUACGAUUU", "EXPERIMENTAL VALUE": -1.24}
{"QUERY SEQUENCE": "ACGUAGCAAUAUUACGAAGU", "EXPERIMENTAL VALUE": -2.97}
{"QUERY SEQUENCE": "ACACAGCAAUAUUACGUCGC", "EXPERIMENTAL VALUE": -4.02}
{"QUERY SEQUENCE": "GCUUAGCAAUAUUACGAUGG", "EXPERIMENTAL VALUE": -1.54}
{"QUERY SEQUENCE": "GUACAGCAAUAUUACGAAUU", "EXPERIMENTAL VALUE": -2.29}
{"QUERY SEQUENCE": "AGUGAGCAAUAUUACGGUGC", "EXPERIMENTAL VALUE": -3.77}
{"QUERY SEQUENCE": "CCCCAGCAAUAUUACGUACA", "EXPERIMENTAL VALUE": -3.37}
{"QUERY SEQUENCE": "ACCUAGCAAUAUUACGGCAA", "EXPERIMENTAL VALUE": -1.41}
{"QUERY SEQUENCE": "CACCAGCAAUAUUACGGAGU", "EXPERIMENTAL VALUE": -3.74}
{"QUERY SEQUENCE": "ACAGAGCAAUAUUACGGGAA", "EXPERIMENTAL VALUE": -2.54}
{"QUERY SEQUENCE": "UAGCAGCAAUAUUACGCGUC", "EXPERIMENTAL VALUE": -3.43}
{"QUERY SEQUENCE": "AUCAAGCAAUAUUACGUCUC", "EXPERIMENTAL VALUE": -2.08}
{"QUERY SEQUENCE": "ACAAAGCAAUAUUACGCACA", "EXPERIMENTAL VALUE": -0.593}
{"QUERY SEQUENCE": "UCGGAGCAAUAUUACGCUUA", "EXPERIMENTAL VALUE": -2.33}
{"QUERY SEQUENCE": "ACGAAGCAAUAUUACGGAAU", "EXPERIMENTAL VALUE": -3.14}
{"QUERY SEQUENCE": "AUUAAGCAAUAUUACGCGUU", "EXPERIMENTAL VALUE": -1.78}
{"QUERY SEQUENCE": "CCCAAGCAAUAUUACGUCGC", "EXPERIMENTAL VALUE": -3.94}
{"QUERY SEQUENCE": "UAUUAGCAAUAUUACGAUUU", "EXPERIMENTAL VALUE": -1.76}
{"QUERY SEQUENCE": "CAUGAGCAAUAUUACGCCAA", "EXPERIMENTAL VALUE": -3.67}
